- Experimental protocol: in vivo
- Set-up: species or system Balb/c mice
- Settings: male, Balb/c, mouse, po, 30 mg/kg
Measured property: Cmax (ng/mL)
# unit: ng/mL | format: bare number

# lookup: Cmax of Cc1ccn2c(C(=O)NCc3ccc(Oc4ccc(Cl)cc4)cc3)c(C)nc2c1 [ND-09759]
2900
